tested on: Trichophyton mentagrophytes; assay: Antifungal activity against Trichophyton mentagrophytes assessed as inhibition zone diameter […] by agar dilution method; type: functional

[
  {
    "substance_smiles": "Fc1cc(-c2nnc3n2N=C(Nc2ccccc2C(F)(F)F)CS3)c(Cl)cc1Cl",
    "inhibition zone (IZ)": "17 mm"
  },
  {
    "substance_smiles": "Nn1c(SCC(=O)Nc2ccc(F)c(Cl)c2)nnc1-c1cc(F)c(Cl)cc1Cl",
    "inhibition zone (IZ)": "11 mm"
  },
  {
    "substance_smiles": "C[C@@H]1[C@H](O)[C@@H](C)/C=C/C=C/C=C/C=C/C=C/C=C/C=C/[C@H](O[C@@H]2O[C@H](C)[C@@H](O)[C@H](N)[C@@H]2O)C[C@@H]2O[C@](O)(C[C@@H](O)C[C@@H](O)[C@H](O)CC[C@@H](O)C[C@@H](O)CC(=O)O[C@H]1C)C[C@H](O)[C@H]2C(=O)O",
    "inhibition zone (IZ)": "19 mm"
  },
  {
    "substance_smiles": "Fc1cc(-c2nnc3n2N=C(Nc2ccc(Cl)cc2Cl)CS3)c(Cl)cc1Cl",
    "inhibition zone (IZ)": "11 mm"
  },
  {
    "substance_smiles": "Cc1cc(C)c(NC(=O)CSc2nnc(-c3cc(F)c(Cl)cc3Cl)n2N)c(C)c1",
    "inhibition zone (IZ)": "17 mm"
  },
  {
    "substance_smiles": "Nn1c(SCC(=O)Nc2ccc(Cl)cc2)nnc1-c1cc(F)c(Cl)cc1Cl",
    "inhibition zone (IZ)": "8 mm"
  }
]
